Kindly state EC50 for each of the entries shown.
biological target: MHV HR2 peptide (MHV); experiment: peptide ELISA
Numbers only, in µg/mL.

hr2.013 (antibody, V domains shown) VH: QVQLVQSGAEVKKPGASVKISCKASGYTFTNNYMNWVRQAPGQGLEWMGIIKPSSGSTIYAHKFQGRVTMTRDTSTSTVYMEVRSLTSEDTAVYYCARDQDHGLQNWGQGTLVTVSS VL: QSVLTQPPSVSAASGQKVTIYCSGSSSNIASNFVSWYQQFPGTAPKLLIYDNNQRPSGIPDRFSGSRSGTSATLGITGLQTGDEADYYCGTWDTSLGAWVFGGGTKLTVL
0.043
CV3-25 (antibody) chain 1: QVQLVESGAEVKKPGESLKISCKGSGYTFTRYWIGWVRQMPGKGLEWMGIIYPGDSDTRYSPSFQGHVTISADKSISTAYLQWNSLKASDTAMYYCARLPQYCSNGVCQRWFDPWGQGTLVTVSS chain 2: EIVLTQSPSSVSASVGDRVTITCRASQGISSWLAWYQQKPGKAPKLLIYAASSLQSGVPSRFSGSGSGTDFTLTISSLQPEDFATYYCQQGNSFPYTFGQGTNLEIK
0.0239

Now for a further binder.
q: Endpoint output: EC50 of hr2.016 (antibody, V domains shown) VH: EVQLLESGGGLVQPGGSLRLSCAASGFMFSKYAMTWVRQTPGKGLEWVSVISGGGGSTYYADSVKGRFTISRDNSKNTLYLQMNSLRAEDTAVYYCAKLLVVFVIDYWGQGALVTVSS VL: EIVLTQSPGTLSLSPGERATLFCRASQSVSSNLAWYQQKPGRAPRLLISGASSRATGIPDRFSGSGSGTDFTLTISRLEPEDFAVYYCQQYGSSPPTFGQGTKVEIK . Value?
a: 0.0266
